- assayedTarget: KDR kinase (Homo sapiens, UniProt P35968, DEL940-989/E990V)
- Sequence (P35968 with tags, fused parts or gaps DEL940-989/E990V): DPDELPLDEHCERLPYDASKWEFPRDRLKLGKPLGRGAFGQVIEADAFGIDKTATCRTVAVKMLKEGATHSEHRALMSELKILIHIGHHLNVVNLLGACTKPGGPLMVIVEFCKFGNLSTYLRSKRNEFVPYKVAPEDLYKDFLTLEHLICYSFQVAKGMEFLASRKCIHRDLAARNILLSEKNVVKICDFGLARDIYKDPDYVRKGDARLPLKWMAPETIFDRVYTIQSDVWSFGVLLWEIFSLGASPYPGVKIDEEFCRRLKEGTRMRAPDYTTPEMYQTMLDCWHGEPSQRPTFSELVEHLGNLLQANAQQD
- protocolDescription: KDR kinase assay K1 (pyruvate kinase/lactate dehydrogenase coupled, spectrophotometric)
- Assay type: biochemical
- conditionInfo: Method K1; read-out: KDR Data (IC50)
- Procedure: IC50 values were calculated from a series of percent inhibition values determined at a range of inhibitor concentrations using software routines as implemented in the GraphPad Prism software package.
assayMetric: IC50 (nM)
Numbers only, in nM.

[[record]]
compound = "CC(C)(C)c1cc(NC(=O)Nc2cccc(Cl)c2)n(-c2cccc(CN)c2)n1"
obsvalue = 9300

[[record]]
compound = "CC(C)(C)c1cc(NC(=O)Nc2cccc(Cl)c2Cl)n(-c2ccc3c(c2)CCNC3=O)n1"
obsvalue = 1000

[[record]]
compound = "CC(C)(C)c1cc(NC(=O)Nc2cccc(Cl)c2Cl)n(-c2ccc3c(c2)CN(S(C)(=O)=O)CC3)n1"
obsvalue = 220

[[record]]
compound = "CC(C)(C)c1cc(NC(=O)Nc2cccc(Cl)c2Cl)n(-c2cccc(CO)c2)n1"
obsvalue = 130

[[record]]
compound = "CC(C)(C)c1cc(NC(=O)Nc2cccc(Cl)c2Cl)n(-c2cccc(C#N)c2)n1"
obsvalue = 47


I'm hoping you can list IC50 for every compound here, please.
1. CNC(=O)[C@@H]1Cc2ccc(-n3nc(C(C)(C)C)cc3NC(=O)Nc3cccc(Cl)c3Cl)cc2CN1
2. COc1ccc(-n2nc(C(C)(C)C)cc2NC(=O)Nc2cccc(F)c2F)cc1
3. CC(C)(C)c1cc(NC(=O)Nc2cccc(Cl)c2)n(-c2cccc(CCN)c2)n1

Result:
150
570
6600

I'm hoping you can list IC50 for every compound here, please.
1. CC(C)(C)c1cc(NC(=O)Nc2cccc(Cl)c2Cl)n(-c2ccc3c(c2)CCCN3C(=N)N)n1
2. CC(C)(C)c1cc(NC(=O)Nc2cccc(Cl)c2Cl)n(-c2ccc(CCO)cc2)n1

Result:
1: 29; 2: 360
